Origin of measurements: ChEMBL document CHEMBL4177710

Biological target: Urease (Canavalia ensiformis)
Sequence (P07374 whole entry): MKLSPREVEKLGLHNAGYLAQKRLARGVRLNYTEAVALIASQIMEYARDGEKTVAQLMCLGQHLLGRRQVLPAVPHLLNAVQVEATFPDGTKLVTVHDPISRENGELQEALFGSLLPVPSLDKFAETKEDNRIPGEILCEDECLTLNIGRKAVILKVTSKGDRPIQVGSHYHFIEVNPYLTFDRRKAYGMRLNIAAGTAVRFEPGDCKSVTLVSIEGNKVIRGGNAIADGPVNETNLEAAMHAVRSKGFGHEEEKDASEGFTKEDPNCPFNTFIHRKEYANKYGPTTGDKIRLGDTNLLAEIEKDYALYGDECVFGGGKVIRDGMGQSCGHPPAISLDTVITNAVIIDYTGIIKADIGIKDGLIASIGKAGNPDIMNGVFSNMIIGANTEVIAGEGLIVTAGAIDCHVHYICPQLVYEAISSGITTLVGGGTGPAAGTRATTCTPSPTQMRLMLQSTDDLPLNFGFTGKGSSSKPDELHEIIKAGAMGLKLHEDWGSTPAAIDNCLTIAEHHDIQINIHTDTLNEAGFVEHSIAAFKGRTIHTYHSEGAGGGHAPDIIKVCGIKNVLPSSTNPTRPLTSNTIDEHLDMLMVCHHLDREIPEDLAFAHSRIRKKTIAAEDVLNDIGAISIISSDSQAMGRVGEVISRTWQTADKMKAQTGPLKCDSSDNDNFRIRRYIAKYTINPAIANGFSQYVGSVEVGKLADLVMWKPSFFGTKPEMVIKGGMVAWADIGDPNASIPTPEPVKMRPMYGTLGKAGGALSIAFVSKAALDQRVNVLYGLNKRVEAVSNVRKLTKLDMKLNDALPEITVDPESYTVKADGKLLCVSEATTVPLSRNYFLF
Assay: Inhibition of jack bean urease assessed as reduction in ammonia production using urea as substrate after 15 mins by indophenol method
observation type: pIC50
pIC50 is a log-scale quantity: -log10 of the concentration expressed in molar.

These solved cases illustrate the format of a correct answer.
# molecule smiles, study target, pIC50
rows = [
    ("Cc1ccc(C(c2c[nH]c3ccc(C(=O)NNC(=S)Nc4ccccc4F)cc23)c2c[nH]c3ccc(C(=O)NNC(=S)Nc4ccccc4F)cc23)cc1", "Urease (Canavalia ensiformis)", 6.10),
    ("Cc1ccc(C(c2c[nH]c3ccc(C(=O)NNC(=S)Nc4ccc([N+](=O)[O-])cc4)cc23)c2c[nH]c3ccc(C(=O)NNC(=S)Nc4ccc([N+](=O)[O-])cc4)cc23)cc1", "Urease (Canavalia ensiformis)", 5.02),
    ("COc1cccc(NC(=S)NNC(=O)c2ccc3[nH]cc(C(c4ccc(C)cc4)c4c[nH]c5ccc(C(=O)NNC(=S)Nc6cccc(OC)c6)cc45)c3c2)c1", "Urease (Canavalia ensiformis)", 4.92),
    ("Cc1ccc(C(c2c[nH]c3ccc(C(=O)NNC(=S)Nc4ccc(Cl)c(Cl)c4)cc23)c2c[nH]c3ccc(C(=O)NNC(=S)Nc4ccc(Cl)c(Cl)c4)cc23)cc1", "Urease (Canavalia ensiformis)", 6.85),
    ("Cc1ccc(C(c2c[nH]c3ccc(C(=O)NNC(=S)Nc4ccc(F)cc4)cc23)c2c[nH]c3ccc(C(=O)NNC(=S)Nc4ccc(F)cc4)cc23)cc1", "Urease (Canavalia ensiformis)", 5.96),
]

Moving on to another compound below.
Tell me the measured pIC50 of `Cc1ccc(C(c2c[nH]c3ccc(C(=O)NNC(=S)Nc4ccccc4Br)cc23)c2c[nH]c3ccc(C(=O)NNC(=S)Nc4ccccc4Br)cc23)cc1` , please.
5.60
